Test system: IGROV-ET
PROTOCOL SUMMARY: SRB colorimetric cell growth inhibition assay, IGROV-ET (ET-743 resistant)
Assay type: cell-based
PARTICULARS: Homo sapiens, IGROV-ET; cell killing (cytotoxic effect); read-out: LC50 IGROV-ET

STRUCTURE STRING	CC50 [µM]
COc1cc(-c2c3c4cc(OC)c(OC(=O)[C@@H]5CCCN5)cc4oc(=O)c3n3ccc4cc(OC(=O)[C@@H]5CCCN5)c(OC)cc4c23)ccc1OC(=O)[C@@H]1CCCN1	11.1
COc1cc(-c2c3n(c4c(=O)oc5cc(OC(=O)[C@H](Cc6c[nH]c7ccccc67)NC(=O)OC(C)(C)C)c(OC)cc5c24)CCc2cc(OC(=O)[C@H](Cc4c[nH]c5ccccc45)NC(=O)OC(C)(C)C)c(OC)cc2-3)ccc1OC(=O)[C@H](Cc1c[nH]c2ccccc12)NC(=O)OC(C)(C)C	7.35
COc1cc2ccn3c(c(-c4ccc(OC(=O)[C@H](C)N)c(OC)c4)c4c5cc(OC)c(OC(=O)[C@H](C)N)cc5oc(=O)c43)c2cc1OC	15.3
COc1cc(-c2c3n(c4c(=O)oc5cc(OC(=O)[C@H](C)NC(=O)[C@H](C)NC(=O)OC(C)(C)C)c(OC)cc5c24)CCc2cc(OC(=O)[C@H](C)NC(=O)[C@H](C)NC(=O)OC(C)(C)C)c(OC)cc2-3)ccc1OC(=O)[C@H](C)NC(=O)[C@H](C)NC(=O)OC(C)(C)C	8.14
COc1cc2c(cc1O)oc(=O)c1c2c(-c2cccc([N+](=O)[O-])c2)c2c3cc(OC)c(O)cc3ccn21	20.1
COc1cc(-c2c3n(c4c(=O)[nH]c5cc(O)c(OC)cc5c24)CCc2cc(O)c(OC)cc2-3)ccc1O	13.1
COc1cc(-c2c3c4cc(OC)c(O)cc4oc(=O)c3n3ccc4c(N)cccc4c23)ccc1O	21.3
COc1cc2ccn3c(c(-c4ccc(OC(=O)[C@@H](N)Cc5ccccc5)c(OC)c4)c4c5cc(OC)c(OC(=O)[C@@H](N)Cc6ccccc6)cc5oc(=O)c43)c2cc1OC	12.3
COc1cc(-c2c3n(c4c(=O)oc5cc(OC(=O)CCc6ccccc6)c(OC)cc5c24)CCc2cc(OC(=O)CCc4ccccc4)c(OC)cc2-3)ccc1OC(=O)CCc1ccccc1	11.1
COc1cc(-c2c3n(c4c(=O)oc5cc(O)c(OC)cc5c24)CCc2c-3cc(OC)c(OC)c2O)ccc1O	18.8
COc1cc(-c2c3c4cc(OC)c(OC(=O)[C@@H](N)C(C)C)cc4oc(=O)c3n3ccc4cc(OC(=O)[C@@H](N)C(C)C)c(OC)cc4c23)ccc1OC(=O)[C@@H](N)C(C)C	2.74
